Each record here notes measured EC50.
target: UniProt:G5EF15; test: inhibitors of POS-1/mex-3 RNA binding, dose response, biochemical, fluorescence polarization (AID 1964);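 further: purified POS-1 fused to maltose binding protein made in E. coli; potency of compounds blocking POS-1 binding to fluorescent RNA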
Sequence (G5EF15 whole entry, the tested form may be a part): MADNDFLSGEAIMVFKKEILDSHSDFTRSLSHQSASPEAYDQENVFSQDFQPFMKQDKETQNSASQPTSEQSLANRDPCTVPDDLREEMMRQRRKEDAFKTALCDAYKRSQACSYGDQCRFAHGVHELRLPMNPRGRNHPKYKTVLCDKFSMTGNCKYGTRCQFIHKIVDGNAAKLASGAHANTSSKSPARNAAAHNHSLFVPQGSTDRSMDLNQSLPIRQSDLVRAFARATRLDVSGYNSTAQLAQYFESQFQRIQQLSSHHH
Calls of active or inactive are those of the source. No stated cut-off is given here; in the data, actives have a measured EC50 and inactives only a lower limit.

Sample records with EC50:
{"compound": "CC(C)(C)OC(=O)NCCCCC1=CC2=CC(=O)C(C)(OC(=O)c3cnc4ccccc4n3)C(=O)C2=CO1 (stereo not drawn)", "EC50": "17.2 µM (active)"}
{"compound": "N=c1c(S(=O)(=O)c2ccc(Cl)cc2)cc2c(=O)n3ccccc3nc2n1CCc1ccccc1", "EC50": "> 300 µM (inconclusive)"}

Now let's try a different one.
Record CC(C)(C)OC(=O)NCCCC1=CC2=CC(=O)C(C)(OC(=O)c3ccc(Cl)nc3)C(=O)C2=CO1 (stereo not drawn) , field EC50: 17.2 µM (active)
